- measurement.target: T1, human melanin concentrating hormone type 2 receptor (MCH-2R) (human, UniProt Q969V1 1-340)
- T1 construct: also called MCH-R2
- T1 sequence (Q969V1 whole entry, form in doubt): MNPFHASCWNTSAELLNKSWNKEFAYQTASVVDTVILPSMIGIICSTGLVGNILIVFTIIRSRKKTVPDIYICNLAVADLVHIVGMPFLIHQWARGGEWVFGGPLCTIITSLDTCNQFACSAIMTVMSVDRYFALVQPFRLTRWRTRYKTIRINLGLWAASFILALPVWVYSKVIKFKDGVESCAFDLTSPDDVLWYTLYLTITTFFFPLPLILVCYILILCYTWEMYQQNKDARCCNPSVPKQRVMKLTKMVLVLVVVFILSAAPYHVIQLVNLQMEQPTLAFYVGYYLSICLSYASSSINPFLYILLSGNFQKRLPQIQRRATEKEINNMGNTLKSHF
- method.description: SPA competition with [125I]-human MCH (Phe13, Tyr19) on receptor membranes
- Procedure: For the SPA-based assay, WGA-PVT beads (NEN Life Sciences Products) were resuspended in Dulbecco's PBS with calcium and magnesium (500 mg beads in 4 ml PBS). […] Coated beads were kept on ice until use. […] Quantitation was performed by scintillation counting (TopCount device).
Bridges are numbered along the chain shown (N, C = ends). [ ]: non-standard residue; d: D form. dCha = N[C@H](CC1CCCCC1)C(=O)O
I'd appreciate it if you could supply IC50 values for the items below.
Give bare numbers, in nM.

The examples below pair each entry with its known result.
Input line: # IC50 lookup, item Ac-RCMLARVYRPC-NH2 (disulfide 2-11; SMILES CSCC[C@@H]1NC(=O)[C@@H](NC(=O)[C@H](CCCNC(=N)N)NC(C)=O)CSSC[C@@H](C(N)=O)NC(=O)[C@@H]2CCCN2C(=O)[C@H](CCCNC(=N)N)NC(=O)[C@H](Cc2ccc(O)cc2)NC(=O)[C@H](C(C)C)NC(=O)[C@H](CCCNC(=N)N)NC(=O)[C@H](C)NC(=O)[C@H](CC(C)C)NC1=O, also called Ala^10) [SEQ. ID. NO. 7]
Output line: 4.6

Input line: Please give the measured IC50 for this binder: Ac-RCML[dCha]RVYRPC-NH2 (disulfide 2-11 (inferred), also called D-Cha^10) [SEQ. ID. NO. 16]
Output line: 74

Input line: Find the recorded IC50 belonging to Ac-RCMLSRVYRPC-NH2 (disulfide 2-11; SMILES CSCC[C@@H]1NC(=O)[C@@H](NC(=O)[C@H](CCCNC(=N)N)NC(C)=O)CSSC[C@@H](C(N)=O)NC(=O)[C@@H]2CCCN2C(=O)[C@H](CCCNC(=N)N)NC(=O)[C@H](Cc2ccc(O)cc2)NC(=O)[C@H](C(C)C)NC(=O)[C@H](CCCNC(=N)N)NC(=O)[C@H](CO)NC(=O)[C@H](CC(C)C)NC1=O, also called Ser^10) [SEQ. ID. NO. 10] and report it.
Output line: 52

--- query ---
Input line: Which IC50 reading was recorded for the binder Ac-RCML[dS]RVYRPC-NH2 (disulfide 2-11 (inferred), also called D-Ser^10) [SEQ. ID. NO. 19] ?
Output line: 1.6
